Biological target: GABAA receptor
Assay: Steroid inhibition of [35S]-TBPS binding, rat brain cortical membranes
Settings: Table II-2, 3 nM [35S]-TBPS, in the presence of 5 mM GABA
measured.metric: IC50

Worked cases, answers included:
CC(=O)[C@H]1OC[C@H]2[C@@H]3CC[C@@H]4C[C@](C)(O)CC[C@@H]4[C@H]3CC[C@]12C [II-A11b] : ≥ 10000 nM
C[C@@]1(O)CC[C@H]2[C@H](CC[C@@H]3[C@@H]2CC[C@]2(C)[C@@H](C(=O)Cn4cc(C#N)cn4)OC[C@@H]32)C1 [II-A13b] : 1000 to 10000 nM
C[C@@]1(O)CC[C@H]2[C@H](CC[C@@H]3[C@@H]2CC[C@]2(C)[C@@H](C(=O)Cn4cc(C#N)cn4)COC[C@@H]32)C1 : 100 to 1000 nM

Data point: CC(=O)[C@H]1COC[C@H]2[C@@H]3CC[C@@H]4C[C@](C)(O)CC[C@@H]4[C@H]3CC[C@]12C ; IC50 = 100 to 1000 nM
